B1: TRIM15 (parent)
chain: LLARLRELEQQIWKERDEYITKVS

- Variants of: B1
- Experiment: protein stability index of a GFP-peptide fusion (GPS, HEK-293T) (PSI 1-6); higher = more stable;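 also: lentivirally expressed fusions sorted by FACS into six bins by GFP to DsRed ratio, PSI derived from sequencing read proportions per bin multiplied by bin number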
- Run parameters: c terminus: a fixed tail appended
Would you mind labelling by protein stability index? At or over 2 is label 1, under is label 0.

Example results:
L5F
label 1
I20G
label 1
L1M
label 0
S24D
label 1

*Q* Hello, I need to know if Q11R has measured protein stability index not below 2. Thanks!
*A* label 1

*Q* Hello, I need to know if D17N has measured protein stability index not below 2. Thanks!
*A* label 0

Values from the supplement of paper PMC10567573
